Measured values drawn from ChEMBL document CHEMBL1132117 for this set.

System: Human betaherpesvirus 5
assay-method-text: The concentration required to reduce virus plaque formation by 50% was measured on Davis strains of human cytomegalovirus
Type: functional, organism-based
parameter: IC50

In the examples that follow, each entry is paired with its recorded IC50.
{"mol-smiles": "O=C1c2ccccc2NS(=O)(=O)N1Cc1ccccc1", "target": "Human betaherpesvirus 5", "IC50": "> 20 µg/mL"}
{"mol-smiles": "O=C1NS(=O)(=O)N(COCc2ccccc2)c2ccccc21", "target": "Human betaherpesvirus 5", "IC50": "> 50 µg/mL"}
{"mol-smiles": "O=C1c2ccccc2N(Cc2ccccc2)S(=O)(=O)N1COCc1ccccc1", "target": "Human betaherpesvirus 5", "IC50": "3.7 µg/mL"}
{"mol-smiles": "O=C(OCCOCN1c2ccccc2C(=O)N(Cc2ccccc2)S1(=O)=O)c1ccccc1", "target": "Human betaherpesvirus 5", "IC50": "> 20 µg/mL"}
{"mol-smiles": "CC(=O)OCCOCN1C(=O)c2ccccc2NS1(=O)=O", "target": "Human betaherpesvirus 5", "IC50": "> 50 µg/mL"}

Proceed to the following item.
## Input State its IC50 on Human betaherpesvirus 5: "CC(=O)OCCOCN1c2ccccc2C(=O)NS1(=O)=O"
## Output > 50 µg/mL

###

Test system: HEL
assay-method-text: The concentration required to reduce cell growth by 50% was measured on Human Embryonic Lung (HEL) cells
Format: functional
Answer each item with its documented CC50.
One number for each entry, in µg/mL.

// each listed compound needs a value for CC50
1. O=C1NS(=O)(=O)N(COCCO)c2ccccc21
2. O=C1c2ccccc2N(COCCO)S(=O)(=O)N1Cc1ccccc1
3. CC(=O)OCCOCN1c2ccccc2C(=O)N(Cc2ccccc2)S1(=O)=O

## Output
[112, 125, 100]

###

Assign IC50 to each entry below.
Test system: Human alphaherpesvirus 3
assay-method-text: The concentration required to reduce virus plaque formation by 50% was measured on YS/Rstrain of VZV expressing viral thymidine kinase(TK-)
Type: functional, organism-based

Example results:
{"mol-smiles": "O=C1c2ccccc2NS(=O)(=O)N1Cc1ccccc1", "target": "Human alphaherpesvirus 3", "parameter": "IC50", "reading": "> 50 µg/mL"}
{"mol-smiles": "C#CCOCN1c2ccccc2C(=O)N(Cc2ccccc2)S1(=O)=O", "target": "Human alphaherpesvirus 3", "parameter": "IC50", "reading": "13 µg/mL"}
{"mol-smiles": "O=C1c2ccccc2N(Cc2ccccc2)S(=O)(=O)N1COCc1ccccc1", "target": "Human alphaherpesvirus 3", "parameter": "IC50", "reading": "3 µg/mL"}
{"mol-smiles": "O=C1c2ccccc2N(COCc2ccccc2)S(=O)(=O)N1Cc1ccccc1", "target": "Human alphaherpesvirus 3", "parameter": "IC50", "reading": "> 5 µg/mL"}
{"mol-smiles": "CC(=O)OCCOCN1C(=O)c2ccccc2NS1(=O)=O", "target": "Human alphaherpesvirus 3", "parameter": "IC50", "reading": "> 50 µg/mL"}

For every listed record, write down its IC50.
1. CCCOCN1c2ccccc2C(=O)NS1(=O)=O
2. O=C1c2ccccc2N(COCCO)S(=O)(=O)N1Cc1ccccc1

## Output
1: > 50 µg/mL; 2: > 20 µg/mL

###

Tested on: Human immunodeficiency virus 1
assay-method-text: Concentration of the required to protect CEM cells of Human T-lymphocyte against Cytopathogenicity of HIV-1(III-B) by 50%
Type: functional, organism-based
experimental-setup: Human immunodeficiency virus 1, CCRF-CEM
Give measured EC50 for each item. Keep answers brief.

{"mol-smiles": "O=C1c2ccccc2N(COCCO)S(=O)(=O)N1Cc1ccccc1", "EC50": "> 40 µg/mL"}
{"mol-smiles": "CCCOCN1c2ccccc2C(=O)NS1(=O)=O", "EC50": "> 40 µg/mL"}
{"mol-smiles": "O=C1NS(=O)(=O)N(COCCO)c2ccccc21", "EC50": "> 40 µg/mL"}
{"mol-smiles": "O=C1NS(=O)(=O)N(COCc2ccccc2)c2ccccc21", "EC50": "> 40 µg/mL"}
{"mol-smiles": "CC(=O)OCCOCN1C(=O)c2ccccc2NS1(=O)=O", "EC50": "> 200 µg/mL"}

Provide EC50 for all items below, preserving their order.
1. O=C1c2ccccc2N(Cc2ccccc2)S(=O)(=O)N1COCc1ccccc1
2. O=C1c2ccccc2NS(=O)(=O)N1Cc1ccccc1
3. CC(=O)OCCOCN1c2ccccc2C(=O)N(Cc2ccccc2)S1(=O)=O
4. O=C(OCCOCN1c2ccccc2C(=O)N(Cc2ccccc2)S1(=O)=O)c1ccccc1
5. O=C1c2ccccc2NS(=O)(=O)N1COCCO
6. CC(=O)OCCOCN1c2ccccc2C(=O)NS1(=O)=O
7. C#CCOCN1c2ccccc2C(=O)N(Cc2ccccc2)S1(=O)=O

## Output
15 µg/mL
> 200 µg/mL
> 40 µg/mL
> 40 µg/mL
> 40 µg/mL
> 200 µg/mL
> 8 µg/mL

## Input Need EC50 of "O=C1c2ccccc2N(COCc2ccccc2)S(=O)(=O)N1Cc1ccccc1" , thanks.
## Output > 8 µg/mL
